- System: CCRF-CEM
- TEST_PROTOCOL: The chemosensitizing effect was measured against P-glycoprotein expressing CCRF-CEM cells in the presence of […]
- Type: functional
- PARTICULARS: Homo sapiens, read-out: ED50 (the source's name)

COMPOUND	EC50
COc1ccc(N2CCN(CC(O)COc3ccccc3C(=O)CCc3ccccc3)CC2)cc1 (stereo not drawn)	0.033 µM
CCCN(C)CC(O)COc1ccccc1C(=O)CCc1ccccc1 (stereo not drawn)	0.055 µM
CCN(CC)CC(O)COc1ccccc1C(=O)c1ccccc1 (stereo not drawn)	0.15 µM
O=C(CCc1ccccc1)c1ccccc1OCC(O)CN1CCCC1 (stereo not drawn)	0.07 µM
O=C(CCc1ccccc1)c1ccccc1OCC(O)CN1CCCCC1 (stereo not drawn)	0.046 µM
Cc1ccccc1N1CCN(CC(O)COc2ccccc2C(=O)CCc2ccccc2)CC1 (stereo not drawn)	0.043 µM
CC(C)N(CC(O)COc1ccccc1C(=O)CCc1ccccc1)C(C)C (stereo not drawn)	0.065 µM
O=C(CCc1ccccc1)c1ccccc1OCC(O)CN1CCN(c2ccc(F)cc2)CC1 (stereo not drawn)	0.041 µM
CCN(CC)CC(O)COc1ccccc1C(=O)CCc1ccccc1 (stereo not drawn)	0.115 µM
CCCNCC(O)COc1ccccc1C(=O)CCc1ccccc1 (stereo not drawn)	0.088 µM
O=C(CCc1ccccc1)c1ccccc1OCC(O)CN1CCOCC1 (stereo not drawn)	0.359 µM
CCCNCC(O)c1oc2ccccc2c1CCc1ccccc1 (stereo not drawn)	0.198 µM
CC(=O)c1ccccc1OCC(O)CN1CCCCC1 (stereo not drawn)	0.77 µM

###

- System: CCRF-CEM
- TEST_PROTOCOL: The effective dose was measured against P-glycoprotein expressing CCRF-CEM cells in the presence of 5 uM etoposide
- Assay type: functional
- PARTICULARS: Homo sapiens, read-out: ED50 (the source's name)

COMPOUND	EC50, nM
Cc1ccccc1N1CCN(CC(O)COc2ccccc2C(=O)CCc2ccccc2)CC1 (stereo unspecified)	648
COc1ccc(CCN(C)CCCC(C#N)(c2ccc(OC)c(OC)c2)C(C)C)cc1OC (stereo unspecified)	3400
CCN(CC)CC(O)COc1ccccc1C(=O)CCc1ccccc1 (stereo unspecified)	3400
O=C(CCc1ccccc1)c1ccccc1OCC(O)CN1CCCCC1 (stereo unspecified)	3300
COc1ccc(N2CCN(CC(O)COc3ccccc3C(=O)CCc3ccccc3)CC2)cc1 (stereo unspecified)	948
O=C(CCc1ccccc1)c1ccccc1OCC(O)CN1CCN(c2ccc(F)cc2)CC1 (stereo unspecified)	1020
